Task for the reader: assign each of the following compounds its reported IC50.
# System: ERK1/2 (Thr202/Tyr204) phosphorylation in KYSE520 cells
# assaySummary: Cellular Phospho-p44/42 MAPK (Erk1/2) (Thr202/Tyr204) assay, In-Cell Western
# Format: cell-based
# testParameters: Homo sapiens, KYSE-520; KYSE520 cells, 1 hour incubation, pERK signal normalized to GAPDH; single assay or mean of multiple assays; read-out: Biological Example 2 IC50
Write down the numeric answer in µM and omit the unit.

input: Reported IC50 for ERK1/2 (Thr202/Tyr204) phosphorylation in KYSE520 cells, given `N[C@@H]1c2ccccc2CC12CCN(c1ncc(Sc3cnc4ccccn34)nn1)CC2` ?
output: 0.152

input: // fetch ERK1/2 (Thr202/Tyr204) phosphorylation in KYSE520 cells IC50 for `Nc1nccc(Sc2cnc(N3CCC4(CC3)Cc3ccc(Cl)cc3[C@H]4N)nn2)c1Cl`
output: 0.286

input: Enter reported IC50 observed with ERK1/2 (Thr202/Tyr204) phosphorylation in KYSE520 cells for COc1cnc2c(c1)[C@@H](N)C1(CCN(c3ncc(Sc4ccnc(N)c4Cl)nn3)CC1)C2 (single isomer, unassigned)
output: 0.004

input: # value lookup — system ERK1/2 (Thr202/Tyr204) phosphorylation in KYSE520 cells, readout IC50, item `N[C@@H]1c2ccccc2CC12CCN(c1ncc(Sc3ccnc(NCCO)c3Cl)nn1)CC2`
output: 0.003
